gcPBM binding intensity (ln) values, listed per item
Test system: PfAP2-I AP2 domain 3 (GST-tagged)
testMethodNotes: gcPBM binding intensity (ln(normalized median fluorescence intensity)); higher = stronger DNA binding
In all, about 25,000 sequences were measured (“ln(normalized median fluorescence intensity)”: median about 7.9, highest 2% from about 11 on). The entries come from a sample that favours the highest values as a whole.
metric: gcPBM binding intensity (ln)

| sequenceChain | recordedNumber |
| --- | --- |
| TATATTCTTTATAGGTGTACTTAATAAATAAAAAAT [XGTACX_site5378] | 8.11 |
| TTTATTTATTAATACACACACACACCCCCACAAAAT [CACACA_site240] | 9.96 |
| CCATAACTCATATGCACACATAAATATTACATATAT [CACACA_site3821] | 8.87 |
| TTAATTAATTTTTCAGTGCAAATAAAAAATATTTAA | 10.4 |
| TTTTAAACAAAAATTTGTACACAATAATTAAATATA [XGTACX_site6755] | 7.79 |
| ATAAAATACAAAGGGACACACATATGAGTCTACAAA [CACACA_site3092] | 7.54 |
| ATAAAAATAAAAAGTGTGCACACAAAAATATATATA [GTGCAC_site9931] | 9.96 |
| TTAACTTTTTTATATGCACACATAAACAAGGATATA [CACACA_site8932] | 9.57 |
| GTTTCCTTAATATTCACACACATATATATAATATAT [CACACA_site1856] | 8.22 |
| ATATATATCTTTTGTGTGCACATATATATAATATAT | 9.79 |
| CGTATATCACCAACTAGTACATATAAATAAATAAAT [XGTACX_site8837] | 7.92 |
| GAAAAAAAAATATCTTGTACTTACATAACTATTGGT [XGTACX_site5326] | 7.61 |
| TAATTATTTTAAAAAGTGCATTAAAAGATATTAAAT [GTGCAC_site9694] | 11.4 |
| TAATAATTTTATAAAGTGCATAAAAATAAAAATTTT | 10.6 |
| AAATATTTATAGGTTTGTACTTATAAATAAAAAAAA [XGTACX_site7360] | 7.83 |
| TTTCTTTATTAAAATATTTTACATATATAATATACG [TGCATGCA_negctrl_site564] | 7.92 |
| CAACCTTTTTTGTTGGTGCATAATTTTTTTTTCTTT | 10.9 |
| TTATAATATTAATGTGCACACAATTAAAATATTATA [CACACA_site2046] | 10.6 |
| TTTGAATACTGAATGGTGCAAATTGTTCTCCCCATG | 10.9 |
| TATCCCTTAGAATACACACCCATATGAGGGTGAACT [CACACA_site5610] | 7.76 |
| TACTGCCTTCCATACCCACACACTTCCCATATATTT [CACACA_site2705] | 8.44 |
| GAACATTTGAAATATGCACACATGTATAAACCTACA [CACACA_site2654] | 8.7 |
| CATATAAATATTTGTGCACACAATTATTAATAATTA [CACACA_site3884] | 11.3 |
| TATATGAACTTATATACACACCATTTTTGTAAATCT [CACACA_site4547] | 7.62 |
| TTCTGACCAATGCTATAAAATAATACAAAAGAAAAA [GTGCAC_negctrl_site3] | 7.83 |
| TTTTTTTTTTTTTTTGTGCACAATATAATTTTTAAT [GTGCAC_site9747] | 10.9 |
| GTCAACTTGTGATAAGTGCATATATATAATAAAATG | 9.88 |
| ATATATAAATATATTTGTACATATAATATGTATTAT [XGTACX_site8820] | 7.75 |
| TTTTCTTTTTTTTTTGTGCACATAATATATAATTAT | 10.8 |
| TATTATAATATATTTGTGCACATAATACCTCCGCTA [GTGCAC_site9570] | 10.7 |
| TTATAAATTTAAAAAGTGCATAATAATAACAAAAAG | 11.2 |
| TTTTATAAATACACACGTACGTGTGCATAACGTTTT [XGTACX_site3199] | 9.46 |
| AAATTAAAGATAAAAGTGCAAAATTATAAATTTATT | 9.64 |
| TACAAATTTATATAAAGTACAAAAAATAATAAAAAT [XGTACX_site7355] | 8.1 |
| AGTATAAGCATTATTGTGCACATAATTATAATTTTT | 10.6 |
| AAAATAAATAAAAAAAGTACATATATAATTTATAAA [XGTACX_site2411] | 7.75 |
| CTTAAACTTTTAAATACACACATACAGACATACACA [CACACA_site6401] | 8.05 |
| AAAATTTCTTTTTTTTGTACATATATAATAATATAT [XGTACX_site7107] | 7.82 |
| CATATAAGAATCTTCTGTACTTATAAGAAAAGACAT [XGTACX_site8135] | 7.89 |
| ATTAAAAGTTTATACAAATAAAAAACAAAACAAAAA [CACACA_negctrl_site1030] | 7.7 |
| ACCAATAAATATTTGGTGCATACATATATATATATA | 10.3 |

---

gcPBM binding intensity (ln) values, listed per item
System: PfAP2-I AP2 domain 3 (GST-tagged)
testMethodNotes: gcPBM binding intensity (ln(normalized median fluorescence intensity)); higher = stronger DNA binding
In all, about 25,000 sequences were measured (“ln(normalized median fluorescence intensity)”: median about 7.9, highest 2% from about 11 on). For the sample, the highest values were picked, then their nearest neighbours and some sequences at random.
metric: gcPBM binding intensity (ln)

| sequenceChain | testTarget | metric | recordedNumber |
| --- | --- | --- | --- |
| GAATAATATGGACATACACACATATACATACCTATA [CACACA_site7075] | PfAP2-I AP2 domain 3 (GST-tagged) | gcPBM binding intensity (ln) | 8.07 |
| GTACACCTATAATATACACACAACAAATATGCACAT [CACACA_site6603] | PfAP2-I AP2 domain 3 (GST-tagged) | gcPBM binding intensity (ln) | 9.64 |
| ACTCTCTTATATTAAACACACATATTTATAGGTATA [CACACA_site7302] | PfAP2-I AP2 domain 3 (GST-tagged) | gcPBM binding intensity (ln) | 8.07 |

---

System: PfAP2-I AP2 domain 3 (GST-tagged)
testMethodNotes: gcPBM binding intensity (ln(normalized median fluorescence intensity)); higher = stronger DNA binding
Over roughly 25,000 sequences, “ln(normalized median fluorescence intensity)” has its median near 7.9; the highest 2% begin near 11. Only a selection was taken, and the highest values are over-represented in it overall.
Decide by gcPBM binding intensity (ln): equal to or exceeding 8 means met, less means not met.

| sequenceChain | labelClass |
| --- | --- |
| TGGGAAAAAATATATGCACACCCCCCAAAAAAAAAA [CACACA_site8696] | met |
| TTAAAAGTAAGCAAAGTGCATATAACAAAAGTAAAG | met |
| AAAAAATAGAATATAAAAATAAAGGAATTAAATTAA [XGTACX_negctrl_site420] | not met |
| ATATAATTAAAAACATGTACATATATATATATATAT [XGTACX_site2882] | met |
| ATAAAGATTAACAAAGTGCATTTATATATATAATCT [GTGCAC_site9407] | met |

---

Test system: PfAP2-I AP2 domain 3 (GST-tagged)
testMethodNotes: gcPBM binding intensity (ln(normalized median fluorescence intensity)); higher = stronger DNA binding
Over roughly 25,000 sequences, “ln(normalized median fluorescence intensity)” has its median near 7.9; the highest 2% begin near 11. The entries come from a sample that favours the highest values as a whole.
metric: gcPBM binding intensity (ln)

| sequenceChain | recordedNumber |
| --- | --- |
| TTGTTCTTTTGAAAGGTGCAAAAGAAAAATAATTAA | 11.1 |
| AAATATTATAAAAAGGTGCATTTTTATTATATGAGT | 10.5 |
| TTATTTTTTTTTAGAGCACACATTTTTAATAAGGTA [CACACA_site2133] | 9.54 |
| ACATGAAACTATAAACGTACATACATACATATATAT [XGTACX_site5011] | 8.09 |
| ATTATCAATATGAAGGTGCATTTAAATAATATTTAC | 11.3 |
| AGAATTAAAATAAAGGTGCATTTTTTTGTTTCATGT | 9.94 |

---

Test system: PfAP2-I AP2 domain 3 (GST-tagged)
testMethodNotes: gcPBM binding intensity (ln(normalized median fluorescence intensity)); higher = stronger DNA binding
Over roughly 25,000 sequences, “ln(normalized median fluorescence intensity)” has its median near 7.9; the highest 2% begin near 11. For the sample, the highest values were picked, then their nearest neighbours and some sequences at random.
gcPBM binding intensity (ln) values, listed per item
metric: gcPBM binding intensity (ln)

| sequenceChain | recordedNumber |
| --- | --- |
| TTAAACTTGTTTTGGATGCACTATATAATTCATTTT [GTGCAC_site9549] | 9.45 |
| CGATTTTTTAAGTTTGTGCACTTAAAAACTATAACA | 10.9 |
| CATATAATTTTATGGGTGCATTTTTTTGTAAGACCA | 10.1 |
| TAAAATATTTCAAAGGTGCAATGATAATTTAAGACG [GTGCAC_site9609] | 10.6 |
| ACAATGAAATATTCATGTACATATAAATAATAGTGT [XGTACX_site3762] | 7.93 |
| TGAAAAAAAAAAAAAAAAAAAAGAAAAAAAAAAAAA [CACACA_negctrl_site709] | 7.82 |
| TAAATAGTTATAAAAGTGCAAAAAAAAAAAAAAAAA [GTGCAC_site9550] | 10.1 |
| AAAAAAAATAAAATGAATAAATAAGAATTACATATT [CACACA_negctrl_site863] | 7.39 |
| AAGAAAATATAACAAAGTAAAAACATATTATATATA [TGCATGCA_negctrl_site248] | 7.34 |
| CATAATTTAAAAAAGGTGCAAAATGGATAATATATA [GTGCAC_site9657] | 11.1 |
| TAAATTTATATATAGGTGCGCAATTTGATAATAGTT [GTGCAC_site9783] | 9.82 |
| ATATAAGAATAAATAGTGCAAAATAAATGATTATTT | 10.7 |
| GTTATTGAAAAAATAGTGCAATATAACAAAGTAAAA | 11.4 |
| ATATTTTATGTAAAGGTGCAAAACAACATTAAAAAA | 10.9 |
| TGAATCAATTGTTGCTGTACATAAGGTATACAATAA [XGTACX_site5127] | 7.97 |
| CATGCCTTTAAAAAGGTGCAAACATTTTCACAAACA | 10.4 |
| TATAAATTTATAAATAGTACATATATTTATATATAT [XGTACX_site6433] | 8.12 |
| TATAATAGTTCATAGGTGCAATATAATAAATTTATA [GTGCAC_site9573] | 11.2 |
| TGTAAATAATATAATAGTACGCATATTTTTATTGAA [XGTACX_site284] | 7.87 |
| TTTATTTTATTCACTATCATAAGCAAAACTTAAACA [GTGCAC_negctrl_site287] | 7.6 |
